# Tested on: MCF-7, clone WS8, cells
# run_description: MCF-7 cell proliferation assay of estrogenic activity
# Format: cell-based, human
# conditions_used: logarithmic value (base 10) of Relative Proliferative Effect in the MCF-7 assay; table gives 'expected or measured' values
measurement_kind: Log RPE
Form field (numeric): enter value without unit.

{"columns": ["molecule", "Log RPE"],
 "data": [
  ["CC(C)(c1cc(Br)c(O)c(Br)c1)c1cc(Br)c(O)c(Br)c1", "−3"]
]}

Field request: Log RPE | item: Oc1ccc(Cc2ccc(O)cc2)cc1 [Bisphenol F, reference compound]
−2

###

# Test system: MCF-7, clone WS8, cells
# run_description: MCF-7 cell proliferation assay of estrogenic activity
# Format: cell-based, human
# conditions_used: logarithmic value (base 10) of Relative Proliferative Effect in the MCF-7 assay; table gives 'expected or measured' values
measurement_kind: Log RPE
Form field (numeric): enter value without unit.

# annotated cases, reported Log RPE shown
{"columns": ["molecule", "measurement_kind", "measured_number"],
 "data": [
  ["CC(c1ccccc1)(c1ccc(O)cc1)c1ccc(O)cc1", "Log RPE", "−3"],
  ["CC(c1ccc(O)cc1)(c1ccc(O)cc1)c1ccc(O)cc1", "Log RPE", "−3"]
]}

Field request: Log RPE | item: O=c1c(-c2ccc(O)cc2)coc2cc(O)cc(O)c12 [Genistein, reference compound]
−2

Another: O=S(=O)(c1ccc(O)cc1)c1ccc(O)cc1 [Bisphenol S, reference compound]
−2

Another: C[C@]12CC[C@@H]3c4ccc(O)cc4CC[C@H]3[C@@H]1CC[C@@H]2O [17β-estradiol, reference compound]
2.00

###

# Tested on: MCF-7, clone WS8, cells
# run_description: MCF-7 cell proliferation assay of estrogenic activity
# Format: cell-based, human
# conditions_used: logarithmic value (base 10) of Relative Proliferative Effect in the MCF-7 assay; table gives 'expected or measured' values
measurement_kind: Log RPE

{"columns": ["molecule", "result"],
 "data": [
  ["CCCC(c1cc(C(C)(C)C)c(O)cc1C)c1cc(C(C)(C)C)c(O)cc1C [Structure 7]", "less than −4"],
  ["CC(C)(C)c1cc(O)c(C(C)(C)C)cc1O [Structure 12]", "less than −4"],
  ["CC(C(=O)O)(c1ccc(O)cc1)c1ccc(O)cc1 [Structure 5]", "less than −4"],
  ["Oc1ccccc1Cc1ccccc1O [Structure 11]", "less than −4"]
]}

Reference for the values: patent US12043448B2
